- experimental target: T1, PUF4 RNA-binding domain (Saccharomyces cerevisiae, UniProt P25339 537-888)
- T1 sequence: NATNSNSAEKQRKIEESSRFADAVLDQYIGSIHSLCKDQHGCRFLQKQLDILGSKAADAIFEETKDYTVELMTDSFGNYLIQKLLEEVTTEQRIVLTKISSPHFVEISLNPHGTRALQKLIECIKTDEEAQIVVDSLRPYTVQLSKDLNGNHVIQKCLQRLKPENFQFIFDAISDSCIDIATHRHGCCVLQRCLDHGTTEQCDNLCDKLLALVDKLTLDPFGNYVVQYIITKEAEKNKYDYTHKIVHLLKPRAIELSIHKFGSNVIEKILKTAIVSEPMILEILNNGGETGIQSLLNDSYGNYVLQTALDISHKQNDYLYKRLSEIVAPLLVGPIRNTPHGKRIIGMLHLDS
- method description: Mg; RNA-MaP; 20 mM Na-HEPES pH 7.4, 30 mM KOAc, 0.75 mM MgCl2, 0.1% Tween-20, 5% glycerol, 0.1 mg/mL BSA, 2 mM DTT; 25 C; 0.0125-409.6 nM protein
- conditions used: tags: N-His6-TEV cleaved; C-SNAP kept, Cy3B-labelled; label: tethered on chip by stalled RNA polymerase
Returns: string. Value is satisfied if measured Kd is below 80 nM, and not satisfied if it is greater than or equal to it.

- binder: "UCUCUUACUGUAUAUAUCUCUCUU (ssRNA) [Id_ii_S1_P3E.2_K3.1_C3.2_[C-2A]_[T-1C]_H3.1_A3.1_F3.1_T3.2_[A10C]]"
  label class: "satisfied"
- binder: "Ic_S4_P3E.1_K3.1_C3.1_H3.1_A3.1_[T5A]_[A6T]_F3.1_[T7A]_T3.1 (ssRNA) RNA: UUUGACAACUGAUCGUUCUUUCUUGUAAUAAUUCUUUCUCGAUCAGUUGUCUUU"
  label class: "not satisfied"
- binder: "Id_ii_S4_P5E.4_K5.3_C5.2_[T-1G]_H5.3_A5.1_F5.1_T5.2 (ssRNA) RNA: UUUGACAACUGAUCGUUCUUUCUCGACACUUAUUAUAUUCUUUCUCGAUCAGUUGUCUUU"
  label class: "not satisfied"
- binder: "UCUCUUAAUAUAUAUUACGUCUCUU (ssRNA) [Id_ii_S1_P4E.3_K4.2_C4.2_[C-2A]_[T-1A]_H4.2_A4.1_F4.1_T4.2_[G10C]_[T11G]]"
  label class: "not satisfied"
- binder: "UCUCUUUGUACGCGCUCUCUU (ssRNA) [Ic_S1_P4E.1_K4.1_C4.1_H4.1_A4.1_[T5C]_[A6G]_[T7C]_F4.1_[T8G]_[A9C]_T4.1]"
  label class: "not satisfied"
- binder: "Id_ii_S4_P5E.3_K5.2_C5.2_[C-2T]_[T-1G]_H5.2_A5.1_F5.1_T5.2_[T11G]_[A12T] (ssRNA) RNA: UUUGACAACUGAUCGUUCUUUCUUGUAUAUUAUUAGUUUCUUUCUCGAUCAGUUGUCUUU"
  label class: "satisfied"
- binder: "UCUCUUUGUUCAUAUCUCUU (ssRNA) [Ib_S1_P3E.1_K3.1_C3.1_H3.1_[A4T]_A3.1_[T5C]_F3.1_T3.1]"
  label class: "not satisfied"
- binder: "UCUCUUUGUAUUGUUUCUCUU (ssRNA) [Ic_S1_P4E.1_K4.1_C4.1_H4.1_A4.1_[A6T]_[T7G]_F4.1_[A9T]_T4.1]"
  label class: "satisfied"
- binder: "UCUCUUUGUAAUUCACUCUCUU (ssRNA) [Ic_S1_P5E.1_K5.1_C5.1_H5.1_A5.1_[T5A]_[A7T]_F5.1_[T8C]_[T9A]_[A10C]_T5.1]"
  label class: "not satisfied"
- binder: "Ia_S4_P4E.1_K4.1_C4.1_H4.1_A4.1_[T7A]_F4.1_T4.1 (ssRNA) RNA: UUUGACAACUGAUCGUUCUUUCUUGUAUAAUAUUCUUUCUCGAUCAGUUGUCUUU"
  label class: "satisfied"
- binder: "Ia_S4_P4E.1_K4.1_C4.1_H4.1_[G2T]_A4.1_F4.1_T4.1 (ssRNA) RNA: UUUGACAACUGAUCGUUCUUUCUUUUAUAUUAUUCUUUCUCGAUCAGUUGUCUUU"
  label class: "not satisfied"
- binder: "Ic_S2_P3E.1_K3.1_C3.1_H3.1_A3.1_[T5A]_[A6T]_F3.1_T3.1 (ssRNA) RNA: UUUGAUUAAUAUGAUAUCGUUCUUUCUUGUAAUUAUUCUUUCUCGAUAUCAUAUUAAUCUUU"
  label class: "satisfied"
- binder: "UCUCUUUGUAAAACAUCUCUU (ssRNA) [Ic_S1_P4E.1_K4.1_C4.1_H4.1_A4.1_[T5A]_[T7A]_F4.1_[T8C]_T4.1]"
  label class: "satisfied"
- binder: "Ic_S2_P4E.1_K4.1_C4.1_H4.1_A4.1_[T5C]_[A6C]_[T7G]_F4.1_[T8C]_[A9C]_T4.1 (ssRNA) RNA: UUUGAUUAAUAUGAUAUCGUUCUUUCUUGUACCGCCUUCUUUCUCGAUAUCAUAUUAAUCUUU"
  label class: "not satisfied"
- binder: "UCUCUUCGUGUAUAUUAUCUCUCUU (ssRNA) [Id_ii_S1_P4E.2_K4.1_C4.2_[T-1G]_H4.1_A4.1_F4.1_T4.2_[G10T]_[T11C]]"
  label class: "satisfied"
- binder: "Ic_S2_P4E.1_K4.1_C4.1_H4.1_A4.1_[A6C]_[T7A]_F4.1_[T8C]_[A9T]_T4.1 (ssRNA) RNA: UUUGAUUAAUAUGAUAUCGUUCUUUCUUGUAUCACUUUCUUUCUCGAUAUCAUAUUAAUCUUU"
  label class: "satisfied"
- binder: "Ic_S4_P5E.1_K5.1_C5.1_H5.1_A5.1_[T5C]_[T6A]_F5.1_[T9C]_[A10T]_T5.1 (ssRNA) RNA: UUUGACAACUGAUCGUUCUUUCUUGUACAAUCUUUCUUUCUCGAUCAGUUGUCUUU"
  label class: "satisfied"
- binder: "Ib_S2_P5E.1_K5.1_C5.1_H5.1_[G2T]_A5.1_[A7G]_F5.1_T5.1 (ssRNA) RNA: UUUGAUUAAUAUGAUAUCGUUCUUUCUUUUAUUGUUAUUCUUUCUCGAUAUCAUAUUAAUCUUU"
  label class: "not satisfied"
- binder: "Id_ii_S2_P3E.3_K3.2_C3.2_[T-1G]_H3.2_A3.1_F3.1_T3.2_[T9A] (ssRNA) RNA: UUUGAUUAAUAUGAUAUCGUUCUUUCUCGUAUAUAUAAAUUCUUUCUCGAUAUCAUAUUAAUCUUU"
  label class: "not satisfied"
- binder: "Ib_S4_P5E.1_K5.1_C5.1_H5.1_A5.1_F5.1_[T8G]_[A10G]_T5.1 (ssRNA) RNA: UUUGACAACUGAUCGUUCUUUCUUGUAUUAGUGUUCUUUCUCGAUCAGUUGUCUUU"
  label class: "not satisfied"
- binder: "Id_ii_S2_P4E.2_K4.1_C4.2_[C-2T]_[T-1C]_H4.1_A4.1_F4.1_T4.2 (ssRNA) RNA: UUUGAUUAAUAUGAUAUCGUUCUUUCUUCUGUAUAUUAGUUUCUUUCUCGAUAUCAUAUUAAUCUUU"
  label class: "satisfied"
- binder: "Ic_S2_P4E.1_K4.1_C4.1_H4.1_A4.1_[T5C]_[A6T]_F4.1_[T8A]_T4.1 (ssRNA) RNA: UUUGAUUAAUAUGAUAUCGUUCUUUCUUGUACUUAAUUCUUUCUCGAUAUCAUAUUAAUCUUU"
  label class: "satisfied"
